Data origin: patent US20230270825A1

Molecular target: human Glucagon receptor (GCGR) (human, UniProt P47871)
Assay: cell-based or functional assay
Numbered stars: 1 amine (or outer) side, 2 acyl side, 3 side chain; on linkers, the order of the positions; unused ones are H or OH. Bridge positions count the residues as written; N and C are the ends. Square brackets hold non-standard residues; d marks the D form. Side chains are listed from the residue outwards. Ends that are not written are not given here. * marks the point of attachment. R6me = (R)-2-amino-2-methyloct-7-enoic acid, C=CCCCC[C@@](C)(N[*:1])C(=O)[*:2]; S7 = C[C@@](CCCCCC=[*:3])(N[*:1])C(=O)[*:2]; Gly(pent-4-enyl) = C=CCCC[C@H](N)C(=O)O; γGlu = O=C(O)[C@H](CCC(=O)[*:2])N[*:1]; Palmitoyl = CCCCCCCCCCCCCCCC(=O)*; S5 = C=CCCC[C@](C)(N)C(=O)O; Aib = CC(C)(N)C(=O)O
Friendly reminder: GCGR EC50 human (cAMP activity assay) below 4 nM is yes, at or above is no.

Completed entries (count: 6):
HXQGTFTSDXSKYLDEXAAQDFVXWLLDT (as printed: HsQGTFTSDK(γEγEC16)SKYLDE*R6meAAQDFV*S7meWLLDT-NH2; s = D-Serine (position 2); Lys 10 conjugated to C16 fatty acid via γEγE; *R6me (position 17) and *S7me (position 24) cyclized to form a double bond containing ring; C-terminal amide) [peptide of SEQ ID NO: 8 (TP398)]
no
H[dS]QGTFTSDK([γGlu-γGlu-Palmitoyl])SKYLDERAA[R6me]DFVQWL[S7]DT-NH2 (staple 20-27) [peptide of SEQ ID NO: 10 (TP399)]
no
H[Aib]QGTFTSDK([γGlu-γGlu-Palmitoyl])SKYLD[Aib]RAAQDFV[S5]WLM[S5]TK-NH2 (staple 24-28; not fully specified (residue 30); printed as HUQGTFTSDK(γEγEC16)SKYLDURAAQDFV*S5meWLM*S5meTKγE-NH2; also: Lys 30 conjugated by a gamma-glutamic acid (KγE)) [peptide of SEQ ID NO: 14 (TP402)]
no
H[Aib]QGTFTSDKSKYLD[Aib]RAAQDFV[Gly(pent-4-enyl)]WLL[Gly(pent-4-enyl)]TK-NH2 (staple 24-28; not fully specified (residue 30); printed as HUQGTFTSDKSKYLDURAAQDFV*S5HWLL*S5HTKγE-NH2; also: Lys 30 conjugated by a gamma-glutamic acid (KγE)) [peptide of SEQ ID NO: 18 (TP 557)]
no
HXQGTFTSDKSKYLDERAAXDFVXWLLDT (as printed: HsQGTFTSDKSKYLDERAA*S5HDFV*S5HWLLDT-NH2; s = D-Serine (position 2); two *S5H (positions 20 and 24) cyclized to form a double bond containing ring; C-terminal amide) [peptide of SEQ ID NO: 17 (TP 556)]
yes
H[Aib]QGTFTSDK([γGlu-γGlu-Palmitoyl])SKYLD[Aib]RAAQDFV[Gly(pent-4-enyl)]WLL[Gly(pent-4-enyl)]TK-NH2 (staple 24-28; not fully specified (residue 30); printed as HUQGTFTSDK(γEγEC16)SKYLDURAAQDFV*S5HWLL*S5HTKγE-NH2; also: Lys 30 conjugated by a gamma-glutamic acid (KγE)) [peptide of SEQ ID NO: 16 (TP551)]
yes

[in] Strictly below 4 nM in GCGR EC50 human (cAMP activity assay)? HXQGTFTSDXSXYLDERAXQDFVQWLLDT (as printed: HsQGTFTSDK(γEγEC16)S*R6meYLDERA*S7meQDFVQWLLDT-NH2; s = D-Serine (position 2); Lys 10 conjugated to C16 fatty acid (-CO-(CH2)14-CH3) via γ-glutamic acid-γ-glutamic acid; *R6me (position 12) and *S7me (position 19) cyclized to form a double bond containing ring; C-terminal amide) [peptide of SEQ ID NO: 7 (TP397)]
[out] no

[in] Try this binder too: H[dS]QGTFTSDKS[R6me]YLDERA[S7]QDFVQWLLDT-NH2 (staple 12-19) [peptide of SEQ ID NO: 6 (TP397)]
[out] no

[in] Try this binder too: HXQGTFTSDXSKYLDERAAXDFVXWLLDT (as printed in Table 1: HsQGTFTSDK(γEγEC16)SKYLDERAA*S5HDFV*S5HWLLDT-NH2 (Table 2 prints HSQ...); s = D-Serine (position 2); Lys 10 conjugated to C16 fatty acid via γEγE; two *S5H = (S)-2-aminohept-6-enoic acid (positions 20 and 24) cyclized to form a double bond containing ring; C-terminal amide) [peptide of SEQ ID NO: 15 (TP506)]
[out] yes

[in] Try this binder too: H[Aib]QGTFTSDK([γGlu-γGlu-Palmitoyl])SKYLD[Aib]RAAQ[R6me]FVQWLM[S7]TK-NH2 (staple 21-28; not fully specified (residue 30); printed as HUQGTFTSDK(γEγEC16)SKYLDURAAQ*R6meFVQWLM*S7meTKγE-NH2; also: Lys 30 conjugated by a gamma-glutamic acid (KγE)) [peptide of SEQ ID NO: 13 (TP401)]
[out] no
